Values were extracted from paper PMC8803428.

- runDescription: Pharmacokinetics of ginsenosides in plasma after a single oral dose of RG or BRG capsules in healthy Korean men (LC-MS/MS)
- Format: in vivo, human
- assaySetup: male, human, plasma, po, 5 g, plasma, after single oral 5 g RG, n = 13, mean ± SD; read-out: AUC(0–∞)
outcomeMeasure: AUC(0-inf)
Number first, unit second: that is the form wanted.

Request: I am curious: what AUC(0-inf) value has been reported for CC(C)=CCC[C@](C)(O[C@@H]1O[C@H](CO[C@@H]2O[C@H](CO)[C@@H](O)[C@H](O)[C@H]2O)[C@@H](O)[C@H](O)[C@H]1O)[C@H]1CC[C@]2(C)[C@@H]1[C@H](O)C[C@@H]1[C@@]3(C)CC[C@H](O[C@@H]4O[C@H](CO)[C@@H](O)[C@H](O)[C@H]4O[C@@H]4O[C@H](CO)[C@@H](O)[C@H](O)[C@H]4O)C(C)(C)[C@@H]3CC[C@]12C [Rb1, ginsenoside Rb1] ?
Response: 257 ng·h/mL

* * *

- runDescription: Pharmacokinetics of ginsenosides in plasma after a single oral dose of RG or BRG capsules in healthy Korean men (LC-MS/MS)
- Format: in vivo, human
- assaySetup: male, human, plasma, po, 5 g, plasma, after single oral 5 g BRG, n = 13, mean ± SD; read-out: AUC(0–∞)
outcomeMeasure: AUC(0-inf) (ng·h/mL)
Numbers only, in ng·h/mL.

Request: # AUC(0-inf) lookup, item CC(C)=CCC[C@](C)(O[C@@H]1O[C@H](CO[C@@H]2O[C@H](CO)[C@@H](O)[C@H](O)[C@H]2O)[C@@H](O)[C@H](O)[C@H]1O)[C@H]1CC[C@]2(C)[C@@H]1[C@H](O)C[C@@H]1[C@@]3(C)CC[C@H](O[C@@H]4O[C@H](CO)[C@@H](O)[C@H](O)[C@H]4O[C@@H]4O[C@H](CO)[C@@H](O)[C@H](O)[C@H]4O)C(C)(C)[C@@H]3CC[C@]12C [Rb1, ginsenoside Rb1]
Response: 182

* * *

- runDescription: Pharmacokinetics of ginsenosides in plasma after a single oral dose of RG or BRG capsules in healthy Korean men (LC-MS/MS)
- Assay type: in vivo, human
- assaySetup: male, human, in vivo, po, AUC(0–∞)
For each entry below, report its AUC(0-inf) value.
Numbers only, in ng·h/mL.

{"compound": "CC(C)=CCC[C@](C)(O[C@@H]1O[C@H](CO)[C@@H](O)[C@H](O)[C@H]1O)[C@H]1CC[C@]2(C)[C@@H]1[C@H](O)C[C@@H]1[C@@]3(C)CC[C@H](O[C@@H]4O[C@H](CO)[C@@H](O)[C@H](O)[C@H]4O)C(C)(C)[C@@H]3CC[C@]12C [Ginsenoside F2, ginsenoside F2]", "AUC(0-inf) [ng·h/mL]": 90.7}

Request: For CC(C)=CCCC(C)(OC1OC(CO)C(O)C(O)C1O)C1CCC2(C)C1C(O)CC1C3(C)CCC(O)C(C)(C)C3CCC12C (centres unmarked) [CK, compound K] , what is its reported AUC(0-inf)?
Response: 457

* * *

- runDescription: Pharmacokinetics of ginsenosides in plasma after a single oral dose of RG or BRG capsules in healthy Korean men (LC-MS/MS)
- Assay type: in vivo, human
- assaySetup: male, human, plasma, po, 5 g, plasma, after single oral 5 g BRG, n = 13, mean ± SD; read-out: AUC(0–t)
outcomeMeasure: AUC(0-t) (ng·h/mL)
One number for each entry, in ng·h/mL.

Request: Look at this compound and give its reported AUC(0-t). CC(C)=CCC[C@](C)(O[C@@H]1O[C@H](CO[C@@H]2O[C@H](CO)[C@@H](O)[C@H](O)[C@H]2O)[C@@H](O)[C@H](O)[C@H]1O)[C@H]1CC[C@]2(C)[C@@H]1[C@H](O)C[C@@H]1[C@@]3(C)CC[C@H](O[C@@H]4O[C@H](CO)[C@@H](O)[C@H](O)[C@H]4O[C@@H]4O[C@H](CO)[C@@H](O)[C@H](O)[C@H]4O)C(C)(C)[C@@H]3CC[C@]12C [Rb1, ginsenoside Rb1]
Response: 56.9
